SYSTEM_NAME: DRB1*07:01
CONDITIONS_USED: modification not given

BINDER | IC50, µM
AEIRASANLAATKMS [… (position 1016)] | 0.395

All values here come from patent US20220033460A1.
